// provenance: paper PMC12524796

biological target: SARS-CoV-2 3CL^pro (Severe acute respiratory syndrome coronavirus 2, UniProt P0DTD1); assay: biochemical; type: biochemical; settings: read-out: SARS-CoV-2 3CL^pro Inhibition 100 µM (%)
Entries are sorted into classes by inhibition at 100 µM as follows: low-valued = under 70%, mid-valued = from 70% up to 80%, high-valued = 80% and over

# example entries with known answers
[[record]]
molecule = "C=CC(=O)Oc1cc(O)c(C(=O)/C=C/c2ccccc2)c(OC)c1"
group = "low-valued"

[[record]]
molecule = "C=CC(=O)Oc1c(C)c(O)c(C(=O)/C=C/c2ccccc2)c(OC)c1C"
group = "low-valued"

[[record]]
molecule = "COc1cc(OC(=O)c2cc(OC(C)=O)c(OC(C)=O)c(OC(C)=O)c2)c2c(=O)cc(-c3ccccc3)oc2c1"
group = "mid-valued"

[[record]]
molecule = "C=CC(=O)Oc1cc(O)c2c(=O)cc(-c3ccccc3)oc2c1"
group = "high-valued"

[[record]]
molecule = "COc1cc2c(c(O)c1[N+](=O)[O-])C(=O)C[C@@H](c1ccccc1)O2"
group = "low-valued"

[[record]]
molecule = "COc1cc(OC(=O)c2cc(OC(C)=O)c(OC(C)=O)c(OC(C)=O)c2)cc(O)c1C(=O)/C=C/c1ccccc1"
group = "high-valued"

[[record]]
molecule = "CC(=O)Oc1cc(C(=O)Oc2cc(O)c3c(c2)O[C@H](c2ccccc2)CC3=O)cc(OC(C)=O)c1OC(C)=O"
group = "mid-valued"

[[record]]
molecule = "COc1cc(O)c2c(c1[N+](=O)[O-])O[C@H](c1ccccc1)CC2=O"
group = "low-valued"

[[record]]
molecule = "C=CC(=O)Oc1cc(OC)c(C(=O)/C=C/c2ccccc2)c(OC(=O)C=C)c1"
group = "mid-valued"

[[record]]
molecule = "COc1cc(OC(=O)c2ccccc2OC(C)=O)c2c(c1)O[C@H](c1ccccc1)CC2=O"
group = "high-valued"


Dear colleague, I would appreciate it if you could identify the bin for `COc1cc(OC(=O)c2ccc(OC(C)=O)c(OC)c2)c2c(c1)O[C@H](c1ccccc1)CC2=O` and reply at your convenience.
high-valued

Dear colleague, I would appreciate it if you could identify the bin for `CC(=O)Oc1cc(C(=O)Oc2cc(O)c3c(=O)cc(-c4ccccc4)oc3c2)cc(OC(C)=O)c1OC(C)=O` and reply at your convenience.
high-valued

Dear colleague, I would appreciate it if you could identify the bin for `COc1cc(C(=O)Oc2cc(O)c3c(c2)O[C@H](c2ccccc2)CC3=O)ccc1OC(C)=O` and reply at your convenience.
high-valued

Dear colleague, I would appreciate it if you could identify the bin for `C=CC(=O)Oc1cc(OC(=O)C=C)c2c(c1)O[C@H](c1ccccc1)CC2=O` and reply at your convenience.
mid-valued

====

inhibition at 100 µM values, listed per item
target: UniProt:P0DTD1; experiment: biochemical; type: biochemical; settings: 100 µM compound; FRET assay; read-out: SARS-CoV-2 3CL^pro Inhibition 100 µM (%)
Just the number in %, nothing appended.

Worked cases, answers included:
[[record]]
molecule_smiles = "C=CC(=O)Oc1cc(OC(=O)C=C)c2c(=O)cc(-c3ccccc3)oc2c1"
unit_spec = "%"
measured_value = 32.3

[[record]]
molecule_smiles = "COc1cc2c(c(O)c1N)C(=O)C[C@@H](c1ccccc1)O2"
unit_spec = "%"
measured_value = 14.7

[[record]]
molecule_smiles = "COc1cc(O)c2c(c1N)O[C@H](c1ccccc1)CC2=O"
unit_spec = "%"
measured_value = 38.2


Switching to the query record.
Write down inhibition at 100 µM measured for item `COc1cc(OC(=O)c2ccccc2)c2c(c1)O[C@H](c1ccccc1)CC2=O`
43.4
